Test: Pharmacokinetic study in mice (IV and oral gavage)
Assay type: in vivo, CD-1 mice
Settings: mouse; PO 10 mg/kg, male CD-1 mice, plasma
Method: Formulation of intravenous and oral gavage administration solutions: The compounds to be tested were dissolved in solutions formulated with 5% DMSO, 10% solutol HS15, and 85% saline. Dosage (measured as the amount of compound in the administration solution (mg)/mouse body weight (kg)): 3 mg/kg intravenously (IV), 10 mg/kg oral gavage (PO). […]
Each item that follows carries a reported AUC(0-t).
State just the number; it will be interpreted in ng·h/mL.

Example entries begin here.
C[C@@H](CONC(=O)CC1CCN(c2ncc(C(F)(F)F)cn2)CC1)Nc1cn[nH]c(=O)c1C(F)(F)F
6550
C[C@@H](COCCC(=O)N1CCN(c2ncc(C(F)(F)F)cn2)CC1)Nc1cn[nH]c(=O)c1C(F)(F)F [RBN-2397, reference compound]
582

Task item: What AUC(0-t) value was documented for this compound, C[C@@H](CONC(=O)CC1=CCN(c2ncc(C(F)(F)F)cn2)CC1)Nc1cn[nH]c(=O)c1C(F)(F)F ?
Reply: 7060
